I'd be grateful if you could share measured IC50 for these entries.
assay: Cytotoxicity by MTT assay against T47D cells
measurement context: human, T47D cells, Cytotoxicity against T47D cells IC50 (nM) Normoxic, normoxic conditions, MTT assay

Consider the compound COc1cc2c3c(c4cc(OC)c(OC)cc4c2cc1OC)[C@H](O)[C@@H]1CCC[N@@+]1([O-])C3 [compound 10] and give its recorded IC50. > 2000 nM

Consider the compound COc1ccc2c3c(c4cc(OC)c(OC)cc4c2c1)CN1O[C@@H](CC(C)=O)CC[C@H]1[C@H]3O (single isomer, unassigned) [compound 3] and give its recorded IC50. > 10000 nM

Consider the compound COc1ccc2c3c(c4cc(OC)c(O)cc4c2c1)CN1CCC[C@H]1[C@H]3O [compound 14, tylophorinidine] and give its recorded IC50. > 10 nM

Consider the compound COc1cc2c3c(c4ccc(O)cc4c2cc1OC)[C@H](O)[C@@H]1CCCN1C3 [compound 15] and give its recorded IC50. > 250 nM

Consider the compound COc1cc2c3c(c4ccc(O)cc4c2cc1O)[C@@H](O)[C@@H]1CCC[N@@+]1([O-])C3 [compound 6] and give its recorded IC50. > 200 nM

Consider the compound COc1cc2c3c(c4cc(O)c(OC)cc4c2cc1O)[C@@H](O)[C@H]1CCC[N@+]1([O-])C3 [compound 7] and give its recorded IC50. > 1000 nM

Consider the compound COc1cc2c3c(c4cc(O)c(OC)cc4c2cc1O)C(O)C1CCCN1C3 (stereo not shown) [compound 5, 2-hydroxyl tylophorinidine] and give its recorded IC50. > 250 nM

---

System: T47D cells
assay: Cytotoxicity by MTT assay against T47D cells
measurement context: read-out: Cytotoxicity against T47D cells IC50 (nM) Hypoxic; T47D cells, hypoxic conditions, MTT assay
recorded metric: IC50

Give measured IC50 for COc1ccc2c3c(c4cc(OC)c(OC)cc4c2c1)C[N+]1([O-])CCC[C@@H]1[C@@H]3O (some centres unmarked) [compound 17, tylophorinine N-oxide] (T47D cells). > 100 nM

Give measured IC50 for COc1ccc2c3c(c4cc(OC)c(O)cc4c2c1)C[N+]1([O-])CCC[C@H]1[C@H]3O (some centres unmarked) [compound 16, tylophoridicine C] (T47D cells). > 100 nM

---

I'd be grateful if you could share measured IC50 for these entries.
assay: Cytotoxicity by MTT assay against T47D cells
measurement context: human, T47D cells, Cytotoxicity against T47D cells IC50 (nM) Normoxic, normoxic conditions, MTT assay

Consider the compound COc1cc2c3c(c4ccc(O)cc4c2cc1O)[C@H](O)[C@@H]1CCCN1C3 [compound 13, 3-O-demethyl tylophorinidine] and give its recorded IC50. > 250 nM

Consider the compound COc1cc2c(cc1O)c1c(c3cc(OC)c(OC)cc32)C[N@+]2([O-])CCC[C@H]2[C@@H]1O [compound 8, 10R-2-hydroxyl tylophorinine N-oxide] and give its recorded IC50. > 1000 nM

Consider the compound COc1cc2c3c(c4cc(OC)c(OC)cc4c2cc1OC)C[N@+]1([O-])CCC[C@H]1C3 [compound 11, 10R, 13aS-tylophorine N-oxide] and give its recorded IC50. > 2000 nM

---

I'd be grateful if you could share measured log10 of IC50 for these entries.
target desc: HIF-1 (Homo sapiens)
Sequence (Q16665 whole entry): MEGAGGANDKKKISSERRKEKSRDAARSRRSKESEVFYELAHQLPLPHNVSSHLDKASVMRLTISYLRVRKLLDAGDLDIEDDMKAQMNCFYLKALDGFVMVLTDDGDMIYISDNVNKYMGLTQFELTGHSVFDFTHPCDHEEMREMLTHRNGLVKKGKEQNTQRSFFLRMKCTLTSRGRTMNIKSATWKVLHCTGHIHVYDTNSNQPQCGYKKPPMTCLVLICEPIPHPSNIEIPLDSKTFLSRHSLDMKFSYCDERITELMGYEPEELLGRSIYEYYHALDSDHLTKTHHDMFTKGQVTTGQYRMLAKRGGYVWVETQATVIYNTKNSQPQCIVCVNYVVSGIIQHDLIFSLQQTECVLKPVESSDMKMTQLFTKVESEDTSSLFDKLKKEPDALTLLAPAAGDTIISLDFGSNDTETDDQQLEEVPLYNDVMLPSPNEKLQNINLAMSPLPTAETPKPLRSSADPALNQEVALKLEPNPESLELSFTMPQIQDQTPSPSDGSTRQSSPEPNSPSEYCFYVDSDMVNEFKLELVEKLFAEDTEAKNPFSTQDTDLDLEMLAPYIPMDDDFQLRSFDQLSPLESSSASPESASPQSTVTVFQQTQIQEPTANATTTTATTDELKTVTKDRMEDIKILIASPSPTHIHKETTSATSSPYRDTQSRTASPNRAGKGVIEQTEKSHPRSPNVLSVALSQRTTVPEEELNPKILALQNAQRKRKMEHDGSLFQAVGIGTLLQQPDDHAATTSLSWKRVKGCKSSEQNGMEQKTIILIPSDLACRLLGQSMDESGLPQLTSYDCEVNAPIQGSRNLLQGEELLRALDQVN
assay: HIF-1-mediated reporter gene assay in T47D cells (HRE-luciferase, hypoxia-induced HIF-1 activation)
Type: cell-based
Set-up: endogenous in cells; host or cells: T47D cells (American Type Culture Collection)
Scale type: logarithmic (base 10). Underlying IC50 unit: nM.

Consider the compound COc1cc2c(cc1O)c1c(c3cc(OC)c(OC)cc32)CN2CCC[C@@H]2[C@@H]1O [compound 9, 13aR-2-hydroxyl tylophorinine] and give its recorded log10 of IC50. 2.69

Consider the compound COc1cc2c3c(c4ccc(O)cc4c2cc1O)[C@H](O)[C@@H]1CCCN1C3 [compound 13, 3-O-demethyl tylophorinidine] and give its recorded log10 of IC50. 1.00

Consider the compound COc1cc2c(cc1O)c1c(c3cc(OC)c(OC)cc32)C[N@+]2([O-])CCC[C@H]2[C@@H]1O [compound 8, 10R-2-hydroxyl tylophorinine N-oxide] and give its recorded log10 of IC50. 2.23

Consider the compound COc1ccc2c3c(c4cc(OC)c(O)cc4c2c1)C[N+]1([O-])CCC[C@H]1[C@H]3O (stereo partly drawn) [compound 16, tylophoridicine C] and give its recorded log10 of IC50. 1.40

Consider the compound COc1ccc2c3c(c4cc(OC)c(OC)cc4c2c1)C[N+]1([O-])CCC[C@@H]1[C@@H]3O (stereo partly drawn) [compound 17, tylophorinine N-oxide] and give its recorded log10 of IC50. 0.48

Consider the compound COc1ccc2c3c(c4cc(OC)c(OC)cc4c2c1)CN1CCC[C@H]1C3 [compound 20, deoxytylophorinine] and give its recorded log10 of IC50. 2.06

Consider the compound COc1cc2c3c(c4cc(O)c(OC)cc4c2cc1O)C(O)C1CCCN1C3 (stereo not drawn) [compound 5, 2-hydroxyl tylophorinidine] and give its recorded log10 of IC50. 1.00

Consider the compound COc1cc2c3c(c4cc(OC)c(OC)cc4c2cc1OC)CN1CCC[C@H]1C3 [compound 19, 13aS-tylophorine] and give its recorded log10 of IC50. 2.64

Consider the compound COc1ccc2c3c(c4cc(OC)c(OC)cc4c2c1)CN1CCC[C@H]1[C@@H]3O [compound 18, tylophorinine] and give its recorded log10 of IC50. 1.28

Consider the compound COc1ccc2c3c(c4cc(OC)c(OC)cc4c2c1)CN1CCC[C@H]1[C@H]3O [compound 21, O-methyl-tylophorindine] and give its recorded log10 of IC50. 1.11

Consider the compound COc1ccc2c3c(c4cc(OC)c(O)cc4c2c1)CN1CCC[C@H]1[C@H]3O [compound 14, tylophorinidine] and give its recorded log10 of IC50. 0.60

Consider the compound COc1ccc2c3c(c4cc(OC)c(OC)cc4c2c1)C[N@+]1([O-])CCC[C@H]1C3 [compound 12, 10R-deoxytylophorinine N-oxide] and give its recorded log10 of IC50. 2.40

Consider the compound COc1cc2c3c(c4cc(O)c(OC)cc4c2cc1O)CC1CCCN1C3 (stereo not drawn) [compound 4, 2-hydroxyl deoxytylophorinidine] and give its recorded log10 of IC50. 1.28
